# Tested on: Rattus norvegicus
# PROTOCOL_SUMMARY: Antidyslipidemic activity in high-cholesterol diet-fed Wistar rat assessed as decrease in cholesterol level at 5 ml/kg, sc administered QD for 2 days
# Assay type: functional
# ASSAY_SETUP: 48 h
MEASURED_QUANTITY: ED50 (µmol/kg)

>  <SMILES_CODE>
Cc1cc(NC(=O)CC(=O)O)c2c(c1Cc1ccc(O)c(C(C)C)c1)CCC2

>  <MEASURED_QUANTITY>
ED50

>  <UNIT_ABBREVIATION>
µmol/kg

>  <REPORTED>
0.03

$$$$
>  <SMILES_CODE>
Cc1cc(C(=O)NCC(=O)O)c2c(c1Oc1ccc(O)c(C(C)C)c1)CCC2

>  <MEASURED_QUANTITY>
ED50

>  <UNIT_ABBREVIATION>
µmol/kg

>  <REPORTED>
0.111

$$$$
>  <SMILES_CODE>
Cc1cc(NC(=O)CC(=O)O)c2c(c1Oc1ccc(O)c(C(C)C)c1)CCC2

>  <MEASURED_QUANTITY>
ED50

>  <UNIT_ABBREVIATION>
µmol/kg

>  <REPORTED>
0.0219

$$$$
>  <SMILES_CODE>
N[C@@H](Cc1cc(I)c(Oc2ccc(O)c(I)c2)c(I)c1)C(=O)O

>  <MEASURED_QUANTITY>
ED50

>  <UNIT_ABBREVIATION>
µmol/kg

>  <REPORTED>
0.00595

$$$$
>  <SMILES_CODE>
CC(C)c1cc(Oc2c(Br)cc(NC(=O)CC(=O)O)cc2Br)ccc1O

>  <MEASURED_QUANTITY>
ED50

>  <UNIT_ABBREVIATION>
µmol/kg

>  <REPORTED>
0.00906

$$$$
>  <SMILES_CODE>
CC(C)c1cc(Oc2c(Br)cc(NC(=O)CC(=O)O)c3c2CCC3)ccc1O

>  <MEASURED_QUANTITY>
ED50

>  <UNIT_ABBREVIATION>
µmol/kg

>  <REPORTED>
0.105

$$$$
>  <SMILES_CODE>
Cc1cc(NC(=O)C(=O)O)c2c(c1Oc1ccc(O)c(C(C)C)c1)CCC2

>  <MEASURED_QUANTITY>
ED50

>  <UNIT_ABBREVIATION>
µmol/kg

>  <REPORTED>
0.0028

$$$$

* * *

# Organism: Homo sapiens
# PROTOCOL_SUMMARY: Selectivity ratio of Ki for human thyroid hormone receptor alpha to Ki for human thyroid hormone receptor beta
Consider the following compounds and their measured Ratio Ki readings.

>  <COMPOUND>
Cc1cc(NC(=O)CC(=O)O)c2c(c1Cc1ccc(O)c(C(C)C)c1)CCC2

>  <Ratio Ki>
8

$$$$
>  <COMPOUND>
Cc1cc(NS(=O)(=O)CC(=O)O)c2c(c1Oc1ccc(O)c(C(C)C)c1)CCC2

>  <Ratio Ki>
6

$$$$
>  <COMPOUND>
Cc1cc(NC(=O)CC(=O)O)c(C)c(C)c1Oc1ccc(O)c(C(C)C)c1

>  <Ratio Ki>
10

$$$$
>  <COMPOUND>
Cc1cc(C(=O)NCC(=O)O)c2c(c1Oc1ccc(O)c(C(C)C)c1)CCC2

>  <Ratio Ki>
8

$$$$
>  <COMPOUND>
CC(C)c1cc(Oc2c(Cl)cc(NC(=O)CC(=O)O)c(Cl)c2Cl)ccc1O

>  <Ratio Ki>
16

$$$$
>  <COMPOUND>
Cc1cc(NC(=O)C(=O)O)c2c(c1Oc1ccc(O)c(C(C)C)c1)CCC2

>  <Ratio Ki>
1

$$$$
>  <COMPOUND>
Cc1cc(NC(=O)CC(=O)O)c2c(c1Oc1ccc(O)c(C(C)C)c1)CCC2

>  <Ratio Ki>
22

$$$$
>  <COMPOUND>
Cc1cc(NC(=O)CC(=O)O)cc(C)c1Oc1ccc(O)c(C(C)C)c1

>  <Ratio Ki>
15

$$$$
>  <COMPOUND>
CC(C)c1cc(Oc2c(Br)cc(NC(=O)CC(=O)O)c3c2CCCC3)ccc1O

>  <Ratio Ki>
1

$$$$
>  <COMPOUND>
CC(C)c1cc(Oc2c(Br)cc(NC(=O)CC(=O)O)cc2Br)ccc1O [EPROTIROME]

>  <Ratio Ki>
22

$$$$
>  <COMPOUND>
CC(C)c1cc(Oc2c(Br)cc(NC(=O)CC(=O)O)c3c2CCC3)ccc1O

>  <Ratio Ki>
58

$$$$
